Where these numbers come from: patent US20210070840A1

Recorded measurements of Activity (parent/mutant), one per entry
- Experimental system: T1, human IL-23 (human, UniProt P29460 23-328; Q9NPF7 20-189)
- T1 construct: Secreted from Sf9 cells for the crystal structure; One molecule is used for all three; also called Interleukin-23
- T1 sequence (looked up) 1: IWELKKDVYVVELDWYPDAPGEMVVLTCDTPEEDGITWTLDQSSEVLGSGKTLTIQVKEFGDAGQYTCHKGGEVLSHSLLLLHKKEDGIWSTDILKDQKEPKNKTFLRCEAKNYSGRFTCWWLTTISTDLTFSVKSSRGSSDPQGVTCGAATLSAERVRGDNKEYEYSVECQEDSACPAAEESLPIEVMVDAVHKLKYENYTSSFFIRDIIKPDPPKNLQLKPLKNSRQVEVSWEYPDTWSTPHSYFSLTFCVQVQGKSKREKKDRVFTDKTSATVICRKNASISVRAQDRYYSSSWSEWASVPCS
- T1 sequence (looked up) 2: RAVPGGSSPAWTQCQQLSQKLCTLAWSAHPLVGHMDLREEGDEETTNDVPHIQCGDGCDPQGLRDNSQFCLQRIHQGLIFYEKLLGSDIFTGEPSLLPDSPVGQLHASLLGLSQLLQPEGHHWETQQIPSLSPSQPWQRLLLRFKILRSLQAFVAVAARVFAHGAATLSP
- Protocol details: ratio of competition ELISA IC50, parent/mutant
// units = ratio; emit number, no label

# example entries with known answers
Adnectin 2 T35→N (designed binder) MGVSDVPRDLEVVAATPTSLLISWEHDYPYRRYYRINYGETGGNSPVQEFTVPKDVDTATISGLKPGVDYTITVYAVTSSYKYDMQYSPISINYRTEIDKPSQHHHHHH; 0.6
Adnectin 2 V75→K (designed binder) MGVSDVPRDLEVVAATPTSLLISWEHDYPYRRYYRITYGETGGNSPVQEFTVPKDVDTATISGLKPGVDYTITVYAKTSSYKYDMQYSPISINYRTEIDKPSQHHHHHH; 0.2

API: the following record is the query input.
// query Reported Activity (parent/mutant), binder Adnectin 2 Y73→N (designed binder) MGVSDVPRDLEVVAATPTSLLISWEHDYPYRRYYRITYGETGGNSPVQEFTVPKDVDTATISGLKPGVDYTITVNAVTSSYKYDMQYSPISINYRTEIDKPSQHHHHHH : ____
// result 0.8
